- experimentDescription: qHTS for Inhibitors of human tyrosyl-DNA phosphodiesterase 1 (TDP1): qHTS in cells in absence of CPT; note: nearly all actives have a fitted effect of over 55% in size; note: potency is the fitted concentration of half-maximal effect
- experimentalConditions: DT40 Tdp1-/- hTDP1 cells, no CPT, ATP luminescence, 48 h
The campaign covered roughly 420,000 compounds. About 64,000 (15%) were called active. Another 27% or so got no clear call; they are omitted. Not all results are given here.
readoutLabel: Potency

Below are worked cases with known answers.
O=C(COC(=O)c1ccc(F)cc1)NCCCc1ccccc1    inactive
N#Cc1ccc(/C=C2\CCn3c2nc2cc(C(=O)O)ccc2c3=O)cc1    inactive
O=C(COc1ccc([N+](=O)[O-])cc1)Nc1cccc(C(=O)Nc2ccccc2C(=O)O)c1    inactive
CC1CCCN(S(=O)(=O)c2ccc(-c3ccc(=O)[nH]n3)o2)C1 (stereo not given)    inactive
C#CCOCCOCCOCCNc1nc(N2CCN(C(=O)Cn3cc(CCO)nn3)CC2)nc(N2CCN(C(=O)Cn3cc(CCCN=C(N)N)nn3)CC2)n1    inactive
CCOC(=O)CC1C(=O)NCCN1C(=O)COc1ccc(Br)cc1C (stereo not given)    inactive
C#CCOCCOCCOCCNc1nc(N2CCN(C(=O)CCCCCCCCCCNC(=O)[C@H]([C@@H](C)CC)n3cc(CCCCN=C(N)N)nn3)CC2)nc(N2CCN(C(=O)CCCCCCCCCCNC(=O)[C@H](CO)n3cc(CCCSC)nn3)CC2)n1    8.2 µM (active)
O=C(c1ccc(F)cc1)C1CCN(CCCCc2ccccc2)CC1    26.6 µM (active)

Consider the compound shown here: COC(=O)c1ccc(NC(=O)CSc2nnc(-c3ccncc3)n2C)cc1 What is its recorded Potency?
inactive

Another compound to look at: COc1ccccc1C(=O)Nc1ccnn1C1CCN(Cc2cnn(C)c2)CC1
inactive

###

- experimentDescription: qHTS for Inhibitors of human tyrosyl-DNA phosphodiesterase 1 (TDP1): qHTS in cells in absence of CPT; note: nearly all actives have a fitted effect of over 55% in size
- experimentalConditions: DT40 Tdp1-/- hTDP1 cells, no CPT, ATP luminescence, 48 h
- Experimental: Human tyrosyl-DNA phosphodiesterase 1 (TDP1) is a novel repair gene, and we propose to use it as a new target for anticancer drug development. […] For the primary screen, Tdp1-/-;hTDP1 cells will be exposed to small molecules in the presence or absence of CPT, and their growth kinetics will be evaluated after 48 hours by measuring ATP activity. […] The hit compounds will then be evaluated in the presence or absence of CPT using Tdp1-/- cells. […]
Among all 420,000 compounds or so, about 64,000 (15%) were called active. Another 27% or so got no clear call; they are omitted. The call rests on the fitted dose curve; in most records, active means well fitted inhibition curve with a large enough effect; inconclusive means small, poorly fitted or top-dose-only effect; inactive means flat fitted curve, though single readings scatter. These entries were drawn from the full list.
Can you answer with just one of these options? y for active, n for inactive

COc1cc(C=NC2CCCCC2)ccc1O    n

Please indicate how the test categorized COc1cc(/C=N/Nc2nc3ccccc3s2)ccc1O .
y

Another molecule to look at: Cc1ccc(S(=O)(=O)c2c(N)n(C)c3nc4ccccc4nc23)cc1
y

###

- experimentDescription: qHTS for Inhibitors of human tyrosyl-DNA phosphodiesterase 1 (TDP1): qHTS in cells in absence of CPT; note: nearly all actives have a fitted effect of over 55% in size
- experimentalConditions: DT40 Tdp1-/- hTDP1 cells, no CPT, ATP luminescence, 48 h
Hit rate of the full screen: of about 420,000 compounds, about 64,000 (15%) were called active. Another 27% or so got no clear call; they are omitted. The call rests on the fitted dose curve; in most records, active means well fitted inhibition curve with a large enough effect; inconclusive means small, poorly fitted or top-dose-only effect; inactive means flat fitted curve, though single readings scatter. The list is a sample of the results.
Can you answer with just one of these options? label 1 (active), label 0 (inactive)

CCOc1ccc(N2C(=O)CSC2=NC#N)cc1    label 0
CCCOc1cccc(C(=O)NCCCNC(=O)c2cccnc2)c1    label 0
Cc1ccc(S(=O)(=O)N2CCC(C(=O)NCC3CCCO3)CC2)cc1 (stereo not drawn)    label 0
COC(=O)N1CCC2(CCCN(Cc3ccccc3OC)C2)CC1    label 0
CCN(CC)C(=O)C1=C(C)N(Cc2ccc(C(C)(C)C)cc2)C(=O)C(CC(=O)NCc2cccc3ccccc23)C1 (stereo not drawn)    label 1
O=C(Nc1cccc2ccccc12)NC1CC1    label 0

Please indicate how the test categorized CCOc1cccc(C(=O)Nc2cccnc2)c1 .
label 0

Another compound to look at: O=C(NCCO)c1cccc(-c2cccc3nccn23)c1
label 0

Another compound to look at: CCOc1ccc(NC(=O)c2ccccc2NS(C)(=O)=O)cc1
label 1

Another compound to look at: CCOC(=O)CCNC(=O)N1CCCC(C(=O)c2ccccc2SC)C1 (stereo not drawn)
label 0

Another compound to look at: CCOc1ccc(NC(=O)c2ccc(NC(=O)C3CCCO3)cc2)cc1 (stereo not drawn)
label 0

Another compound to look at: COc1cccc2c(=O)n(CC(=O)N3CCCCCC3)ccc12
label 0

Another compound to look at: Cc1ccnc(NS(=O)(=O)c2ccc(NC(=O)c3ccc(S(=O)(=O)N4CCOCC4)cc3)cc2)n1
label 0

Another compound to look at: O=C1OCC2=C1C(c1ccc(Cl)cc1)c1cc3c(cc1O2)OCO3 (stereo not drawn)
label 1

Another compound to look at: CCNC(=O)N1CCCC(C(=O)c2ccc(-c3ccccc3)cc2)C1 (stereo not drawn)
label 1

Another compound to look at: CCN(CC)C(=O)C1=C(C)N(Cc2ccc(F)cc2)C(=O)C(CC(=O)NC2CCCC2)C1 (stereo not drawn)
label 0

Another compound to look at: CCN(CC)S(=O)(=O)c1cc(C(=O)Nc2ccccn2)ccc1C
label 0

Another compound to look at: CCN(C(=O)Nc1cccc2ccccc12)c1ccccc1
label 1

###

- experimentDescription: qHTS for Inhibitors of human tyrosyl-DNA phosphodiesterase 1 (TDP1): qHTS in cells in absence of CPT; note: nearly all actives have a fitted effect of over 55% in size
- experimentalConditions: DT40 Tdp1-/- hTDP1 cells, no CPT, ATP luminescence, 48 h
- Experimental: Human tyrosyl-DNA phosphodiesterase 1 (TDP1) is a novel repair gene, and we propose to use it as a new target for anticancer drug development. […] For the primary screen, Tdp1-/-;hTDP1 cells will be exposed to small molecules in the presence or absence of CPT, and their growth kinetics will be evaluated after 48 hours by measuring ATP activity. […] The hit compounds will then be evaluated in the presence or absence of CPT using Tdp1-/- cells. […]
In all, about 420,000 compounds went through this assay and about 64,000 (15%) were called active. Not shown: some 27% with an inconclusive outcome. The call rests on the fitted dose curve; in most records, active means well fitted inhibition curve with a large enough effect; inconclusive means small, poorly fitted or top-dose-only effect; inactive means flat fitted curve, though single readings scatter. These entries were drawn from the full list.
Can you answer with just one of these options? 1 (active), 0 (inactive)

Please indicate how the test categorized Cc1ccc2nc(NC(=O)C3CCN(S(=O)(=O)c4ccc5c(c4)oc(=O)n5C)CC3)sc2c1 .
1

Another compound to look at: COc1ccc(S(=O)(=O)N2CCOCC2)cc1C(=O)NC1CCCCC1
0

Another compound to look at: Cc1nnc(NC(=O)Cn2c(=O)sc3ccccc32)s1
0

Another compound to look at: O=C(CSc1nnc(SCc2ccc(F)cc2)s1)Nc1ccc(C(=O)O)cc1
0

Another compound to look at: Oc1ccc(N=Nc2nccs2)c(O)c1
1

Another compound to look at: Cc1cc(=O)oc(C)c1C(=O)Nc1cnc2ccccc2c1
0

###

- experimentDescription: qHTS for Inhibitors of human tyrosyl-DNA phosphodiesterase 1 (TDP1): qHTS in cells in absence of CPT; note: nearly all actives have a fitted effect of over 55% in size
- experimentalConditions: DT40 Tdp1-/- hTDP1 cells, no CPT, ATP luminescence, 48 h
Screen size: about 420,000 compounds; about 64,000 (15%) were called active. About 27% were inconclusive and are not listed. The call rests on the fitted dose curve; in most records, active means well fitted inhibition curve with a large enough effect; inconclusive means small, poorly fitted or top-dose-only effect; inactive means flat fitted curve, though single readings scatter. Only a sample is shown.
Can you answer with just one of these options? y (active), n (inactive)

O=C(CNCc1ccco1)Nc1cc(S(=O)(=O)N2CCOCC2)ccc1N1CCCC1    n
O=C(Nc1cccnc1)c1ccc2c(c1)OCO2    n
Cc1ccc(C(=O)NCC(=O)OCC(=O)Nc2cccc(S(=O)(=O)N3CCCC3)c2)cc1C    n
CCOc1ccc(C(=O)NC(=S)Nc2ccc(N3CCOCC3)c(Cl)c2)cc1[N+](=O)[O-]    y
CCOC(=O)CSc1nnc(CNC(=O)Cc2ccccc2)n1-c1ccccc1OC    n
CC(OC(=O)c1cc2ccccc2[nH]1)C(=O)N(C)c1ccccc1 (centres undefined)    n
COc1ccc2[nH]c3c(C)c4cc[n+](C)cc4c(C)c3c2c1    y
Cc1ccc(S(=O)(=O)N2CCCCC2)cc1NC(=O)CCNC(=O)c1ccccc1    n
O=S1(=O)CSCS(=O)(=O)C1    n
O=C(Nc1ccc(S(=O)(=O)N2CCOCC2)cc1)C1CCN(S(=O)(=O)c2ccc(Cl)cc2)CC1    y

Please indicate how the test categorized CC(NS(=O)(=O)c1ccc(Cl)cc1)C(=O)Nc1ccc2c(c1)OCCO2 (centres undefined) .
n

Another compound to look at: CCOc1ccc(C(=O)NC(=S)Nc2ccc(NC(=O)C(C)C)cc2)cc1[N+](=O)[O-]
n

Another compound to look at: O=C(O)C1CCN(S(=O)(=O)N2CCOCC2)CC1
n

Another compound to look at: O=C(CCNC(=O)c1ccc(Br)cc1)Nc1cccc(S(=O)(=O)N2CCCCC2)c1
y
